Value source: patent US20220017512A1

assay target: recombinant human TRKA (G667C) (Homo sapiens, UniProt P04629, G667C)
Sequence (P04629 33-796 G667C): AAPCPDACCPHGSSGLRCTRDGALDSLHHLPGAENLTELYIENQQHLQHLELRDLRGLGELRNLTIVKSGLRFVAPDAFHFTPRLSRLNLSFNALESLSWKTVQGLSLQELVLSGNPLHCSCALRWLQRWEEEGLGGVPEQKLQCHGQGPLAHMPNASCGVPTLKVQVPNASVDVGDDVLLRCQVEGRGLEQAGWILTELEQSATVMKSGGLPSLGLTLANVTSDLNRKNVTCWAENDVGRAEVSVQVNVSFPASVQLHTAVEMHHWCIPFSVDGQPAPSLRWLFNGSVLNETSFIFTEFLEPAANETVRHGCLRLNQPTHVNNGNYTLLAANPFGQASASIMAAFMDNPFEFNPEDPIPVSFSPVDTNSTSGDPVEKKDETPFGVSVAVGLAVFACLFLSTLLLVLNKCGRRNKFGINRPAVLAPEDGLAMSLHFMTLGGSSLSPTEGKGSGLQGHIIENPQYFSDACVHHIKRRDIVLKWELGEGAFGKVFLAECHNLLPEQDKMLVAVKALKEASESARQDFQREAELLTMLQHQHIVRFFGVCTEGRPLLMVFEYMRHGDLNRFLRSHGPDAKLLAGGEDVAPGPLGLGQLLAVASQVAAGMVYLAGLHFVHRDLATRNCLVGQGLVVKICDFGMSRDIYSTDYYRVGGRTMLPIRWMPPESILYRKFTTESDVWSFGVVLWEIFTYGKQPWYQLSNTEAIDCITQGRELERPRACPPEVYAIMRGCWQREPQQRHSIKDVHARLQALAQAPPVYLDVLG
assay explanation: In vitro activity test on mutant TRKA (G667C) (HTRF KinEASE TK)
cond: 5.5 μM ATP, 30 min
Kindly supply the reported IC50 values for the records listed here.

For O=C(Nc1c(Cl)cnc2ccc(N3C[C@@H](F)C[C@@H]3c3cc(F)ccc3F)nc12)N1CC[C@H](O)C1 on recombinant human TRKA (G667C) (Homo sapiens, UniProt P04629, G667C), measured IC50 was < 10 nM

For O[C@@H]1CN=C(Nc2ccnc3ccc(N4C[C@@H](F)C[C@@H]4c4cc(F)ccc4F)nc23)OC1 on recombinant human TRKA (G667C) (Homo sapiens, UniProt P04629, G667C), measured IC50 was < 1 nM

For Fc1ccc(F)c([C@H]2C[C@H](F)CN2c2ccc3ncc(Cl)c(-c4noc(C5CCNCC5)n4)c3n2)c1 on recombinant human TRKA (G667C) (Homo sapiens, UniProt P04629, G667C), measured IC50 was < 1 nM

For Fc1ccc(F)c([C@H]2C[C@H](F)CN2c2ccc3ncc(Cl)c(-c4nnc(C5CCNCC5)o4)c3n2)c1 on recombinant human TRKA (G667C) (Homo sapiens, UniProt P04629, G667C), measured IC50 was < 10 nM

====

assay target: recombinant human TRKA (G595R) (Homo sapiens, UniProt P04629, G595R)
Sequence (P04629 33-796 G595R): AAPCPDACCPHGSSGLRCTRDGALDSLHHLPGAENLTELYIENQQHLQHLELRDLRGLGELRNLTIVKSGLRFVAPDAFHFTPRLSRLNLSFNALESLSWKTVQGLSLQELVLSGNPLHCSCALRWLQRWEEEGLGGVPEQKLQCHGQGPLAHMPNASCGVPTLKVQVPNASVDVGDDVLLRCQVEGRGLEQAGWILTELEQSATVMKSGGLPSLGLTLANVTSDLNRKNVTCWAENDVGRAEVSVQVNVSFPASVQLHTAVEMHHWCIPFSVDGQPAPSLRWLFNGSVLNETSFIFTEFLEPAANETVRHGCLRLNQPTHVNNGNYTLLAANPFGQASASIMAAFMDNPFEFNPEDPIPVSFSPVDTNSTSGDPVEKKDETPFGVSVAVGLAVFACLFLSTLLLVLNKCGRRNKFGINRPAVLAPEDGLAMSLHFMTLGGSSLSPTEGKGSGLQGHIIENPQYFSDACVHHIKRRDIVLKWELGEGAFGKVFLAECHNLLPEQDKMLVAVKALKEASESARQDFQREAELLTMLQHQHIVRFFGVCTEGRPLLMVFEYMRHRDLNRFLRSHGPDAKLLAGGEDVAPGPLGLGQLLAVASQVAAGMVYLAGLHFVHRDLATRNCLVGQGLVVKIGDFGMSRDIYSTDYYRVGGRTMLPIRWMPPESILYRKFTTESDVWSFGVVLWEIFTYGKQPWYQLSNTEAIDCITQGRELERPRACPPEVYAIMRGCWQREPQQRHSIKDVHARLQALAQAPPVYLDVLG
assay explanation: In vitro activity test on mutant TRKA (G595R) (HTRF KinEASE TK)
cond: 4.5 μM ATP, 30 min
pIC50: −log10 of the molar value.
endpoint label: pIC50

Recorded pIC50 (compound Fc1ccc(F)c([C@H]2C[C@H](F)CN2c2ccc3ncc(Cl)c(-c4cnc(N5CCOCC5)s4)c3n2)c1 [Example 61] ): > 7.30

Recorded pIC50 (compound [2H]c1nc(-c2cnn(C3CCNCC3)c2)c2nc(N3C[C@@H](F)C[C@@H]3c3cc(F)ccc3F)ccc2n1 [Example 58] ): > 9.00

Recorded pIC50 (compound CS(=O)(=O)n1cc(-c2c(Cl)cnc3ccc(N4C[C@@H](F)C[C@@H]4c4cc(F)ccc4F)nc23)cn1 [Example 25] ): > 9.00

Recorded pIC50 (compound COc1ncc(F)cc1[C@H]1CCCN1c1ccc2ncc(Cl)c(-c3cnn(C4CCNCC4)c3)c2n1 [Example 30] ): > 9.00

Recorded pIC50 (compound CN1CCC(n2cc(-c3ccnc4ccc(N5C[C@@H](F)C[C@@H]5c5cc(F)ccc5F)nc34)cn2)CC1 [Example 13] ): > 9.00

Recorded pIC50 (compound O=S(=O)(Nc1ccnc2ccc(N3C[C@@H](F)C[C@@H]3c3cc(F)ccc3F)nc12)N1CC[C@H](O)C1 [Example 69] ): > 9.00

Recorded pIC50 (compound O=C1N(c2ccnc3ccc(N4C[C@@H](F)C[C@@H]4c4cc(F)ccc4F)nc23)CC12CCNCC2 [Example 94] ): > 9.00

Recorded pIC50 (compound Fc1ccc(F)c([C@H]2C[C@H](F)CN2c2ccc3ncnc(-c4cnn(C5CCNCC5)c4)c3n2)c1 [Example 46] ): > 9.00

Recorded pIC50 (compound Fc1ccc(F)c([C@H]2C[C@H](F)CN2c2ccc3ncnc(-c4cnc(C5CCNCC5)nc4)c3n2)c1 [Example 91] ): > 8.00

Recorded pIC50 (compound O=C(Nc1ccnc2ccc(N3CCC[C@@H]3c3cc(F)ccc3F)nc12)N1CC[C@H](O)C1 [Example 27] ): > 9.00

Recorded pIC50 (compound Fc1ccc(F)c([C@H]2C[C@H](F)CN2c2ccc3ncc(Cl)c(-c4ccc(C5CCNCC5)nc4)c3n2)c1 [Example 63] ): > 8.00

Recorded pIC50 (compound CC1(C)CC(n2cc(-c3ccnc4ccc(N5C[C@@H](F)C[C@@H]5c5cc(F)ccc5F)nc34)cn2)CCN1 (stereo partly drawn) [Example 18] ): > 8.00

Recorded pIC50 (compound Fc1ccc(F)c([C@H]2CCCN2c2ccc3ncc(F)c(-c4cnn(C5CNC5)c4)c3n2)c1 [Example 28] ): > 8.00

Recorded pIC50 (compound Fc1ccc(F)c([C@H]2C[C@H](F)CN2c2ccc3nccc(-c4cnn(C5CCNCC5)c4)c3n2)c1 [Example 11] ): > 9.00

Recorded pIC50 (compound Fc1ccc(F)c([C@H]2C[C@H](F)CN2c2ccc3ncc(Cl)c(-c4cnn(C5CNC5)c4)c3n2)c1 [Example 22] ): > 9.00
